These measurements were taken from ChEMBL document CHEMBL4819151.

Parameter: MIC. Scope: all listed entries.
# Test system: Staphylococcus aureus
# PROTOCOL_DESCRIPTION: Antibacterial activity against methicillin-resistant Staphylococcus aureus USA300 assessed as bacterial growth inhibition measured by two-fold serial microdilution method
# Format: functional
The response must be a number in µg/mL with no trailing unit.

# example entries with known answers
## Task GET /values?readout=MIC&item= CC(C)=CCC/C(C)=C/CC/C(C)=C/CNCCc1ccc(F)cc1
## Result 8

## Task GET /values?readout=MIC&item= O=[N+]([O-])c1ccc(OCCCCCCCCOc2ccc([N+](=O)[O-])cc2)cc1
## Result 64

Next:
## Task GET /values?readout=MIC&item= CC(C)=CCC/C(C)=C/CN1CCCCC1
## Result 64

## Task GET /values?readout=MIC&item= CC(C)=CCC/C(C)=C/CC/C(C)=C/CNC1CCCC1
## Result 16

## Task GET /values?readout=MIC&item= CC(C)=CCC/C(C)=C/CC/C(C)=C/CN1CCCCC1
## Result 32

## Task GET /values?readout=MIC&item= Fc1ccc(CCNCCCCCCCCNCCc2ccc(F)cc2)cc1
## Result 16

## Task GET /values?readout=MIC&item= CC(C)=CCC/C(C)=C/CNCCc1ccc(F)cc1
## Result 32

## Task GET /values?readout=MIC&item= CC(C)=CCC/C(C)=C/CNC1CCCC1
## Result 128

## Task GET /values?readout=MIC&item= O=[N+]([O-])c1ccc(OCCCCCCCCNCCc2ccc(F)cc2)cc1
## Result 8

## Task GET /values?readout=MIC&item= CC(=O)NC[C@H]1CN(c2ccc(N3CCOCC3)c(F)c2)C(=O)O1
## Result 1

## Task GET /values?readout=MIC&item= Fc1ccc(CNCCCCCCCCNCc2ccc(F)cc2)cc1
## Result 64

## Task GET /values?readout=MIC&item= CC(C)=CCC/C(C)=C/CC/C(C)=C/CNC1CC1
## Result 16

====

# TESTED_TARGET: 1,4-dihydroxy-2-naphthoate octaprenyltransferase (Mycobacterium tuberculosis, UniProt P9WIP3)
# Sequence (P9WIP3 whole entry): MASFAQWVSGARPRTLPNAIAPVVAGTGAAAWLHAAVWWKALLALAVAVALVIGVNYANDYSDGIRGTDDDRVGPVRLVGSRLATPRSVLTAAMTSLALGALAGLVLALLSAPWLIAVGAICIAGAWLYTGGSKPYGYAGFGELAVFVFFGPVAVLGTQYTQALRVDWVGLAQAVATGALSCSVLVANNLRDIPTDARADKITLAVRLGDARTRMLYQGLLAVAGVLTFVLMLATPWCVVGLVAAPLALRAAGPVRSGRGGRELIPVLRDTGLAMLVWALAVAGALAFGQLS
# PROTOCOL_DESCRIPTION: Competitive inhibition of Mycobacterium tuberculosis H37Rv membrane MenA using DHNA as a substrate in presence of [1-3H]FPP or [1-3H]GGPP
# Format: cell membranes
PARAMETER_MEASURED: pIC50
Remember, pIC50 is on a log scale: it is -log10 of the molar concentration.

## Task GET /values?readout=pIC50&item= CC(C)=CCC/C(C)=C/CC/C(C)=C/COC(=O)C(N)CC(=O)O (configuration not stated)
## Result 5.27

In the following, a different molecule is considered.
## Task GET /values?readout=pIC50&item= C=CCN(C)C/C=C(\C)CC/C=C(\C)CCC=C(C)C
## Result 4.70
